- Method notes: Antiproliferative activity against JNK knock-out human HAP1 cells transfected with sgJNK#2 assessed as inhibition of cell growth incubated for 3 days by CellTiter-Glo luminescent assay
- Type: functional, cell-based
- Recorded conditions: HAP1, 72 h
Metric name: IC50 (nM)

> print(dat)
                    structure.smiles.string  measure.unit  recorded.number
1  C[C@H]1CN(C(=O)c2ccc(NC(=O)/C=C/CN(C)C)cc2)C[C@H]1Nc1nccc(-c2c(-c3ccccc3)nn3ccccc23)n1            nM              846

----------
- System: 1-phosphatidylinositol 3-phosphate 5-kinase (Homo sapiens, UniProt Q9Y2I7)
- Sequence (Q9Y2I7 whole entry, the tested form may be a part): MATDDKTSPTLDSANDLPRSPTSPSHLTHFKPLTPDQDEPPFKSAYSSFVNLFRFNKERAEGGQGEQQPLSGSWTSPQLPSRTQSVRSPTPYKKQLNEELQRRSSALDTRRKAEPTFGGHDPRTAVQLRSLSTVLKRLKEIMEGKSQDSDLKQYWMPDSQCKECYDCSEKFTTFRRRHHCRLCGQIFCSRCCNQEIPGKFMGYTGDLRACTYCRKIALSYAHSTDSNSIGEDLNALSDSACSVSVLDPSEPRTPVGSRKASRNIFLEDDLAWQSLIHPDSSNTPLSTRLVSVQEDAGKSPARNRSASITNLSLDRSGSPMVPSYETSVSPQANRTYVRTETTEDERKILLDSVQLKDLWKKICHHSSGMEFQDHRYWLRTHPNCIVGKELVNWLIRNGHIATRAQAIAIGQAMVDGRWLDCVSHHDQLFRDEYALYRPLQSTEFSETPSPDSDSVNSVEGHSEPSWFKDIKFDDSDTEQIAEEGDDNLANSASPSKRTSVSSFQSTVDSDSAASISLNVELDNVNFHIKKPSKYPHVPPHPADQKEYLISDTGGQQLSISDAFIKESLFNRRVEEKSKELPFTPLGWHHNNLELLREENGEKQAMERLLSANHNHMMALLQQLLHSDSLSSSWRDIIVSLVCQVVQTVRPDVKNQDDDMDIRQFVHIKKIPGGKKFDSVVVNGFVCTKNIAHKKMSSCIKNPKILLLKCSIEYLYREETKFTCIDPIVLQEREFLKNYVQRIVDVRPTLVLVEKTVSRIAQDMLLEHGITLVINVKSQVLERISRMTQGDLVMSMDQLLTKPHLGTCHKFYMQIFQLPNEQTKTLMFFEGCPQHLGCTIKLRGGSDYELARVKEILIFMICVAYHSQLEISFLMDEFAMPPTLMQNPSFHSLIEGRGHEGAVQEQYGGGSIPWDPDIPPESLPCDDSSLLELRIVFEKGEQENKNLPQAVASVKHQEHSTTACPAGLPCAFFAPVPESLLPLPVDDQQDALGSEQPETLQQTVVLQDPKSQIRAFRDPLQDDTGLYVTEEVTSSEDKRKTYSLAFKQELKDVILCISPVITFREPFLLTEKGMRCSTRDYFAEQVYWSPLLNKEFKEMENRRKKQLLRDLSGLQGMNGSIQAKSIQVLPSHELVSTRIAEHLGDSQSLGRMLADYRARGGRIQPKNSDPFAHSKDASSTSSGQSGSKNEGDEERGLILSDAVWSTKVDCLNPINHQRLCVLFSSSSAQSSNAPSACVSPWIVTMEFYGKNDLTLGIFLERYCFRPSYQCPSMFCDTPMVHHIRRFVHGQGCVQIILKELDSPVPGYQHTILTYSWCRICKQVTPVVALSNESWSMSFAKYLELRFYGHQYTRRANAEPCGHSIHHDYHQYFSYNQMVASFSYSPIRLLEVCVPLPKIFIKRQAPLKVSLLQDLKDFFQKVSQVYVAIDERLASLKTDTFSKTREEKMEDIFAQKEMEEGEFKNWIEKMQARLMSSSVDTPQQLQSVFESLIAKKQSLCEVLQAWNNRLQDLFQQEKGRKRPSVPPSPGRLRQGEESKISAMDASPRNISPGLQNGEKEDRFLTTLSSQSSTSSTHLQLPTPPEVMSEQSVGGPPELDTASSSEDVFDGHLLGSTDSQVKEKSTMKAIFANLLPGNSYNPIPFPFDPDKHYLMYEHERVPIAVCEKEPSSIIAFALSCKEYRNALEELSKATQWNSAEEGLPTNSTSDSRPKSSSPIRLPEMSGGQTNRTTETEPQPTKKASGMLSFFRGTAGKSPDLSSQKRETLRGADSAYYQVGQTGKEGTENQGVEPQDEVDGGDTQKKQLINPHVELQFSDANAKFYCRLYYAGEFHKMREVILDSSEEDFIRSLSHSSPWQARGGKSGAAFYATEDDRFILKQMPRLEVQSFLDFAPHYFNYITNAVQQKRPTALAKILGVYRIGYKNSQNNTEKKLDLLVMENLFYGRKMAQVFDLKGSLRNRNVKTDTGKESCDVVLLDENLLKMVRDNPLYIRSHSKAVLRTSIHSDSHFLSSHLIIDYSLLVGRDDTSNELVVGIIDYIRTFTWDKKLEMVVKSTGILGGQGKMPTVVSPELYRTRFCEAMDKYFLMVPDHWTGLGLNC
- Method notes: Inhibition of Nano-Luc fused PIKFYVE (unknown origin) expressed in HEK293T cells pretreated for 3 hrs followed by K8-tarcer addition and measured after 1 hr by NanoBRET assay
pIC50: −log10 of the molar value.
Metric name: pIC50

> print(dat)
                    structure.smiles.string  value.operator  recorded.number
1  CN(C)C/C=C/C(=O)Nc1ccc(C(=O)N2CC[C@H](Nc3nccc(-c4c(-c5ccccc5)nn5ccccc45)n3)C2)cc1               =             6.53
2  CN(C)CCCC(=O)Nc1ccc(C(=O)N2CC[C@H](Nc3nccc(-c4c(-c5ccccc5)nn5ccccc45)n3)C2)cc1               <             5.52

----------
- System: Mitogen-activated protein kinase 8 (Homo sapiens, UniProt P45983)
- Sequence (P45983 whole entry): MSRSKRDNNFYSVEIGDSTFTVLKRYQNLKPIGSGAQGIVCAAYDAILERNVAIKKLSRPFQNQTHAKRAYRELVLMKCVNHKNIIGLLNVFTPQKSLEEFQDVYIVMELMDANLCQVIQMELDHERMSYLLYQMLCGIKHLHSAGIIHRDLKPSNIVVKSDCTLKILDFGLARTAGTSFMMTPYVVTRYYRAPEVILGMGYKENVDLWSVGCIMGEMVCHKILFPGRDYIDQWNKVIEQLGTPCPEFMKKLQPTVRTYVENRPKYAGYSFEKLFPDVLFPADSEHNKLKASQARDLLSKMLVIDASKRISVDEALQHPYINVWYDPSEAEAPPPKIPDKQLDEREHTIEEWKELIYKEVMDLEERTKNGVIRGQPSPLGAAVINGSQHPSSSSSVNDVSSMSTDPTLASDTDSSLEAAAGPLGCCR
- Method notes: Inhibition of His-tagged human recombinant JNK1 expressed in insect cells incubated for 1 hr in presence of ATP by Z'-Lyte assay
pIC50: −log10 of the molar value.
Metric name: pIC50

> print(dat)
                                   molecule  metric.name  recorded.number
1  CN(C)C/C=C/C(=O)Nc1ccc(C(=O)N2CCC[C@@H](Nc3nccc(-c4c(-c5ccccc5)nn5ccccc45)n3)C2)cc1        pIC50             6.33
2  Cc1ccc2c(-c3ccnc(N[C@H]4CCN(C(=O)c5ccc(NC(=O)/C=C/CN(C)C)cc5)C4)n3)c(-c3ccccc3)nn2c1        pIC50             7.74
3  CN(C)C/C=C/C(=O)Nc1ccc(C(=O)N2CC[C@H](Nc3nccc(-c4c(-c5ccccc5)nn5ccccc45)n3)C2)cc1        pIC50             6.78
4  CN(C)C/C=C/C(=O)Nc1ccc(C(=O)Nc2cccc(Nc3nccc(-c4c(-c5ccccc5)nn5ccccc45)n3)c2)cc1        pIC50             6.14
5  CN(C)C/C=C/C(=O)Nc1ccc(C(=O)NC2CCCC(Nc3nccc(-c4c(-c5ccccc5)nn5ccccc45)n3)C2)cc1 (stereo unspecified)        pIC50             6.32
6  CN(C)C/C=C/C(=O)Nc1ccc(C(=O)N2CC[C@H](Nc3nccc(-c4c(-c5ccc(F)cc5)nn5ccccc45)n3)C2)cc1        pIC50             7.17

----------
- System: Mitogen-activated protein kinase 9 (Homo sapiens, UniProt P45984)
- Sequence (P45984 whole entry, the tested form may be a part): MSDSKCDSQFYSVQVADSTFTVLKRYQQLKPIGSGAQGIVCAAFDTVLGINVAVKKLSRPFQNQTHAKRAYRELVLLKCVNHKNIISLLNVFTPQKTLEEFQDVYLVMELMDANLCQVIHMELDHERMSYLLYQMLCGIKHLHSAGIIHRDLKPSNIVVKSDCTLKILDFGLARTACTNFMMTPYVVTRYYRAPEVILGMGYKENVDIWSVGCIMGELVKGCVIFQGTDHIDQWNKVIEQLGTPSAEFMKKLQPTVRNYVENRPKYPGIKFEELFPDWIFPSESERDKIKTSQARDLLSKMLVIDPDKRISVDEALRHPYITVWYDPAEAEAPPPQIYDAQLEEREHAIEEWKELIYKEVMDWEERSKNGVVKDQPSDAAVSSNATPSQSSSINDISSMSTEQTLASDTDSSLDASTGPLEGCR
- Method notes: Inhibition of His-tagged human recombinant JNK2 expressed in baculovirus expression system incubated for 1 hr in presence of ATP by Z'-Lyte assay
Listed below: IC50 values for each entry.
Metric name: IC50 (nM)

> print(dat)
                                    molecule  recorded.number
 1  CN(C)C/C=C/C(=O)Nc1ccc(C(=O)NC2CCCC(Nc3nccc(-c4c(-c5ccccc5)nn5ccccc45)n3)C2)cc1 (stereo not drawn)               44
 2  CN(C)C/C=C/C(=O)Nc1ccc(C(=O)N2CC[C@H](Nc3nccc(-c4c(-c5cccc(Cl)c5)nn5ccccc45)n3)C2)cc1                4
 3  CN(C)C/C=C/C(=O)Nc1ccc(C(=O)N2CCCC[C@@H](Nc3nccc(-c4c(-c5ccccc5)nn5ccccc45)n3)C2)cc1               17
 4  CN(C)C/C=C/C(=O)Nc1ccc(C(=O)N2CC[C@H](Nc3nccc(-c4c(-c5ccc(F)cc5)nn5ccccc45)n3)C2)cc1                4
 5  CN(C)C/C=C/C(=O)Nc1ccc(C(=O)N2CC[C@H](Nc3ncc(Cl)c(-c4c(-c5ccccc5)nn5ccccc45)n3)C2)cc1              483
 6  CN(C)C/C=C/C(=O)Nc1ccc(C(=O)N2CCCC[C@H](Nc3nccc(-c4c(-c5ccccc5)nn5ccccc45)n3)C2)cc1               28
 7  CN(C)C/C=C/C(=O)Nc1ccc(C(=O)N2CCC[C@@H](Nc3nccc(-c4c(-c5ccccc5)nn5ccccc45)n3)C2)cc1               17
 8  CN(C)C/C=C/C(=O)Nc1ccc(C(=O)N2CC[C@@H](Nc3nccc(-c4c(-c5ccccc5)nn5ccccc45)n3)C2)cc1                2
 9  CN(C)C/C=C/C(=O)Nc1ccc(C(=O)N2CCC[C@H](Nc3nccc(-c4c(-c5ccccc5)nn5ccccc45)n3)C2)cc1                5
10  Cc1ccc2c(-c3ccnc(N[C@H]4CCN(C(=O)c5ccc(NC(=O)/C=C/CN(C)C)cc5)C4)n3)c(-c3ccccc3)nn2c1                1
11  CN(C)C/C=C/C(=O)Nc1ccc(C(=O)N2CC[C@H](Nc3nccc(-c4c(-c5ccc(Cl)cc5)nn5ccccc45)n3)C2)cc1                7
12  CN(C)C/C=C/C(=O)Nc1ccc(C(=O)Nc2cccc(Nc3nccc(-c4c(-c5ccccc5)nn5ccccc45)n3)c2)cc1              8.3
13  CN(C)C/C=C/C(=O)Nc1ccc(C(=O)N2CC[C@H](Nc3nccc(-c4c(-c5ccccc5)nn5ccccc45)n3)C2)cc1                5

----------
- System: 1-phosphatidylinositol 3-phosphate 5-kinase (Homo sapiens)
Metric name: Kd (µM)

> print(dat)
                    structure.smiles.string  measure.unit  recorded.number
1  CN(C)C/C=C/C(=O)Nc1ccc(C(=O)N2CC[C@H](Nc3nccc(-c4c(-c5ccccc5)nn5ccccc45)n3)C2)cc1            µM             0.27

----------
- System: Mitogen-activated protein kinase 9 (Homo sapiens)
- Method notes: Inhibition of Nano-Luc fused JNK2 (unknown origin) expressed in HEK293T cells pretreated for 3 hrs followed by K5-tarcer addition and measured after 1 hr by NanoBRET assay
- Format: cell-based
pIC50: −log10 of the molar value.
Metric name: pIC50

> print(dat)
                    structure.smiles.string  metric.name  recorded.number
1  C[C@H]1CN(C(=O)c2ccc(NC(=O)CCCN(C)C)cc2)C[C@H]1Nc1nccc(-c2c(-c3ccccc3)nn3ccccc23)n1        pIC50             5.77

----------
- System: Mitogen-activated protein kinase 8 (Homo sapiens, UniProt P45983)
- Method notes: Inhibition of His-tagged human recombinant JNK1 expressed in insect cells incubated for 1 hr in presence of ATP by Z'-Lyte assay
pIC50: −log10 of the molar value.
Listed below: pIC50 values for each entry.
Metric name: pIC50

> print(dat)
                    structure.smiles.string  metric.name  recorded.number
1  CN(C)C/C=C/C(=O)Nc1ccc(C(=O)N2CC[C@H](Nc3nccc(-c4c(-c5cccc(Cl)c5)nn5ccccc45)n3)C2)cc1        pIC50             7.13
2  CN(C)C/C=C/C(=O)Nc1ccc(C(=O)N2CC[C@H](Nc3ncc(Cl)c(-c4c(-c5ccccc5)nn5ccccc45)n3)C2)cc1        pIC50             5.52
3  CN(C)C/C=C/C(=O)Nc1ccc(C(=O)N2CCCC[C@@H](Nc3nccc(-c4c(-c5ccccc5)nn5ccccc45)n3)C2)cc1        pIC50             6.41
4  CN(C)C/C=C/C(=O)Nc1ccc(C(=O)N2CC[C@@H](Nc3nccc(-c4c(-c5ccccc5)nn5ccccc45)n3)C2)cc1        pIC50             8.00
5  CN(C)C/C=C/C(=O)Nc1ccc(C(=O)N2CC[C@H](Nc3nccc(-c4c(-c5ccc(Cl)cc5)nn5ccccc45)n3)C2)cc1        pIC50             7.21
6  CN(C)C/C=C/C(=O)Nc1ccc(C(=O)N2CCCC[C@H](Nc3nccc(-c4c(-c5ccccc5)nn5ccccc45)n3)C2)cc1        pIC50             6.59
7  CN(C)C/C=C/C(=O)Nc1ccc(C(=O)N2CCC[C@H](Nc3nccc(-c4c(-c5ccccc5)nn5ccccc45)n3)C2)cc1        pIC50             7.28
